Test: Toxicity against human MCF7 cells incubated for 48 hrs by PrestoBlue cell viability reagent based assay
Conditions: read-out: LD50
recorded-metric: CC50 at 48 h (µM)

>>> quantitative_readout("COC(=O)c1cc(OC)c2cc(OC)c(OC)c(O)c2c1O [BUSSEIHYDROQUINONE A]")
304
>>> quantitative_readout("COc1cc(C(=O)O)c(O)c2ccc3c(c12)C=CC(C)(C)O3 [BUSSEIHYDROQUINONE B]")
374
>>> quantitative_readout("COC(=O)c1cc(OC)c2cc(O)c3c(c2c1O)C=CC(C)(CCC=C(C)C)O3 (racemic)")
86.4

----------
Experiment: Selectivity index, ratio of LD50 for human MCF7 cells to IC50 for chloroquine-resistant Plasmodium falciparum W2
Type: toxicity, cell-based
Conditions: read-out: Selectivity Index
recorded-metric: selectivity ratio

>>> result("COc1cc(C(=O)O)c(O)c2ccc3c(c12)C=CC(C)(C)O3 [BUSSEIHYDROQUINONE B]")
2.96
>>> result("COc1cc(C(=O)O)c(O)c2ccc3c(c12)C=CC(C)(CCC=C(C)C)O3 (racemic) [BUSSEIHYDROQUINONE C]")
"> 4.52"
>>> result("COc1cc(C(=O)O)c(O)c2ccc3c(c12)C=C1/C(=C(\\C)C=O)CCC1(C)O3 (racemic) [BUSSEIHYDROQUINONE D]")
"> 3.27"
>>> result("COC(=O)c1cc(OC)c2cc(O)c3c(c2c1O)C=CC(C)(CCC=C(C)C)O3 (racemic)")
1.02
>>> result("COC(=O)c1cc(OC)c2cc(OC)c(OC)c(O)c2c1O [BUSSEIHYDROQUINONE A]")
2.11

----------
Assay: Selectivity index, ratio of LD50 for human MCF7 cells to IC50 for chloroquine-sensitive Plasmodium falciparum D6
Assay type: toxicity, cell-based
Settings: read-out: Selectivity Index
recorded-metric: selectivity ratio

>>> result("COC(=O)c1cc(OC)c2cc(O)c3c(c2c1O)C=CC(C)(CCC=C(C)C)O3 (racemic)")
2.83
>>> result("COc1cc(C(=O)O)c(O)c2ccc3c(c12)C=C1/C(=C(\\C)C=O)CCC1(C)O3 (racemic) [BUSSEIHYDROQUINONE D]")
"> 13.4"
>>> result("COC(=O)c1cc(OC)c2cc(OC)c(OC)c(O)c2c1O [BUSSEIHYDROQUINONE A]")
8.44
>>> result("COc1cc(C(=O)O)c(O)c2ccc3c(c12)C=CC(C)(C)O3 [BUSSEIHYDROQUINONE B]")
13.4
>>> result("COc1cc(C(=O)O)c(O)c2ccc3c(c12)C=CC(C)(CCC=C(C)C)O3 (racemic) [BUSSEIHYDROQUINONE C]")
"> 8.32"

----------
This listing pairs compounds with measured IC50.
System: Plasmodium falciparum
Assay: Antiplasmodial activity against chloroquine-sensitive Plasmodium falciparum D6 by SYBR green I-based assay
Assay type: functional, organism-based
recorded-metric: IC50 (µM)

>>> quantitative_readout("COC(=O)c1cc(OC)c2cc(OC)c(OC)c(O)c2c1O [BUSSEIHYDROQUINONE A]")
36
>>> quantitative_readout("COc1cc(C(=O)O)c(O)c2ccc3c(c12)C=CC(C)(CCC=C(C)C)O3 (racemic) [BUSSEIHYDROQUINONE C]")
32.6
>>> quantitative_readout("COc1cc(C(=O)O)c(O)c2ccc3c(c12)C=C1/C(=C(\\C)C=O)CCC1(C)O3 (racemic) [BUSSEIHYDROQUINONE D]")
19.6
>>> quantitative_readout("COC(=O)c1cc(OC)c2cc(O)c3c(c2c1O)C=CC(C)(CCC=C(C)C)O3 (racemic)")
30.6
>>> quantitative_readout("COc1cc(C(=O)O)c(O)c2ccc3c(c12)C=CC(C)(C)O3 [BUSSEIHYDROQUINONE B]")
27.8
>>> quantitative_readout("OC(c1cc(C(F)(F)F)nc2c(C(F)(F)F)cccc12)C1CCCCN1 (stereo unspecified)")
0.029
